Test system: MDA-MB-435s cells (human melanoma cells)
Assay: MDA-MB-435s cell proliferation inhibitory assay (CellTiter-Glo)
Type: cell-based
Details: Homo sapiens, MDA-MB-435S, 72 h, read-out: Proliferation inhibition IC50
Experimental: • 1). […] Resuspend an appropriate amount of cell suspension to 3000 cells/100 μL according to the count, mixed well and then put the corresponding number of cells into a 96-well plate by pipette. • 3). […] Day 1 detected: Take out an appropriate amount of CTG 1 h in advance and the plate was allowed to equilibrate at room temperature for 30 min. 100 μL of CTG was added to each well and shaken for 5 mins, and then standed in the dark for 5 mins, the luminescence value was detected by ELISA. • 6). […]
outcomeMeasure: IC50 (nM)
Please respond with the number in nM and leave the unit unwritten.

# value of IC50, MDA-MB-435s cells (human melanoma cells), item CC[C@@]1(O)C(=O)OCc2c1cc1n(c2=O)Cc2c-1nc1cc(F)c(C)cc1c2[C@@H](N)CO [Example 39a] = 2.12

Let me check: CC[C@@]1(O)C(=O)OCc2c1cc1n(c2=O)Cc2c-1nc1cc(F)c(OC)cc1c2[C@H](C)N [Example 30a] , system MDA-MB-435s cells (human melanoma cells), measured IC50 is 3.3

Considering CC[C@@]1(O)C(=O)OCc2c1cc1n(c2=O)Cc2c-1nc1cc3c(cc1c2[C@H](C)N)OCO3 [Example 35a] , its IC50 with MDA-MB-435s cells (human melanoma cells) was recorded as 3.33

IC50 of CC[C@@]1(O)C(=O)OCc2c1cc1n(c2=O)Cc2c-1nc1cc(F)c(C)cc1c2C(C)(C)N [Example 7] , assay on MDA-MB-435s cells (human melanoma cells), is 162

MDA-MB-435s cells (human melanoma cells) assay, molecule [2H]C([2H])([2H])c1cc2c([C@H](C)N)c3c(nc2cc1F)-c1cc2c(c(=O)n1C3)COC(=O)[C@]2(O)CC [Example 23] , recorded IC50 = 0.76

Entry CC[C@@]1(O)C(=O)OCc2c1cc1n(c2=O)Cc2c-1nc1cc(F)c(C)cc1c2[C@H](C)NC(=O)[C@@H](O)C1CC1 [Example 17] : IC50 on MDA-MB-435s cells (human melanoma cells) = 6.3

Observed IC50 on MDA-MB-435s cells (human melanoma cells), entry CC[C@@]1(O)C(=O)OCc2c1cc1n(c2=O)Cc2c-1nc1cc(F)c(C)cc1c2[C@H](N)C(F)(F)F [Example 40b] , equals 2.65
